tested on: SW-620 colon; test: NCI-60 one-dose screen, 48 h (100 = growth as untreated, 0 = no growth, -100 = all killed); settings: 10 µM unless noted
This is part of a sample that, as a whole, favours compounds with a hit. Of some 83,000 tested, about 20% had one in any assay.
Decide by growth: equal to or exceeding 90% means Fulfilled, less means Not fulfilled.

| Compound | Group |
| --- | --- |
| CC/C=C\C[C@H](O)C/C=C1/C(=O)C=C[C@@H]1C/C=C\CCCC(=O)OCCS(=O)(=O)c1ccccc1 | Not fulfilled |
| Nc1nonc1-n1nncc1-c1cccnc1 | Fulfilled |
| CC1=CCC(OC(=O)C(C)(C)CCC(O)(C(=O)OC2(C(C)C)CCC3(C)OC3C2)C(C)C)(C(C)C)CC1 (stereo not given) | Not fulfilled |
| O=C(NN1C(=O)CSC1c1ccc(Cl)cc1)c1[nH]c2ccc(F)cc2c1-c1ccccc1 (stereo not given) | Not fulfilled |
| CCCC(c1nnnn1C1CCCCC1)N1CCN(C(=O)c2ccco2)CC1 (stereo not given) | Not fulfilled |
| O=Cc1c(OCc2cnnn2CC(=O)Nc2ccc(Cl)cc2)ccc2ccccc12 | Fulfilled |
| O=C(CCc1nnc2sc(COc3ccccc3)nn12)c1nc2ncccc2[nH]1 | Not fulfilled |
| O=C(O)c1cn(C2CC2)c2cc(N3CCN(C(=O)C[n+]4ccccc4)CC3)c(F)cc2c1=O | Fulfilled |
| CC(=O)c1ccc2oc(=O)n(Cc3ccc(C#N)cc3)c(=O)c2c1 | Fulfilled |
| CC1=C(CC(=O)c2cccc([N+](=O)[O-])c2)C(=O)c2ccccc2C1=O | Not fulfilled |
| CCOC(=O)C1(Cc2ccccc2)CCN(Cc2cccc(OC)c2O)CC1 | Not fulfilled |
| Cc1sc2ncn(CC(=O)Nc3ccc(S(N)(=O)=O)cc3)c(=O)c2c1C | Fulfilled |
| Cc1ccc(N=NC2C(=O)N(c3ccc(Cl)cc3)N(c3ccc(Cl)cc3)C2=O)cc1 | Fulfilled |
| Cc1ccc2cccc(Oc3ccc(Nc4ncnc5onc(-c6ccccc6)c45)cc3)c2n1 | Not fulfilled |
| COc1cc(CNC(=O)Cc2ccccc2)ccc1OCc1cn(-c2ccc(F)cc2)nn1 | Fulfilled |
| Fc1cccc(COc2ccc(Nc3ncnc4onc(-c5ccccc5)c34)cc2)c1 | Not fulfilled |
| COc1ccc(/C=C/C(=O)c2c(C)nc3ccccc3c2/C=C/c2ccccc2)c(OC)c1 | Not fulfilled |
| COC(=O)c1cc2c(n1Cc1ccccc1)-c1oncc1CCC2 | Not fulfilled |
| O=c1c2cccc(F)c2sc2c(N3CCNCC3)nc3ccccc3c12 | Not fulfilled |
